B1: library; a variant is named by its letters at N, in order (parent)
chain: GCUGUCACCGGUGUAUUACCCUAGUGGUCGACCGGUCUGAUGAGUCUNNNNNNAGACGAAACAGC

variants of: B1; test: normalized RNA/DNA level without ligand (relative to sTRSVctl = 100) (log10 (% of sTRSVctl)); ligand: hypoxanthine (xanthine aptamer); higher = less ribozyme self-cleavage, higher mRNA level; conditions: HEK293T, reporter: mCherry (pCS4076), ligand present: no
EXPERIMENTAL READOUT: normalized RNA/DNA level without ligand (log10)

SEQUENCE CHANGE | MEASUREMENT
UGUCUC | 2.01
CUAUCC | 1.92
AUUAGU | 1.71
CUUUCG | 1.9
CGUGUU | 1.89
ACGGGU | 1.33
UGCGUC | 2.03
GAGGUG | 1.33
CCACAC | 1.78
UCUAAC | 1.85
UCUACC | 1.91
GGAACC | 1.86
AGAUGA | 1.65
UACGAU | 1.72
UCCAGG | 1.8
CCCCCA | 1.89
UGCUUU | 1.94
UAAAAA | 1.78
GUUUCU | 2.02
GCGUAU | 1.49
CUUUUA | 1.77
UGCACC | 1.93
ACCUUG | 1.6
UGACCC | 1.94
AUGUGU | 1.53
CAGCGU | 1.89
GCCAGG | 1.43
GCCCGA | 1.72
CCUAAC | 1.83
CAGCGG | 1.48
GUUCUG | 1.54
GAUACA | 1.83
GUGUAG | 1.17
CGUCCU | 2.02
GAAUAC | 1.71
UCUUGA | 1.51
AUCAGU | 1.77
UCGAAU | 1.48
GUGAUA | 1.75
UCUGCG | 1.73
CGUUUA | 1.68
AACAUG | 1.44
CCGUUG | 1.59
GUAAUA | 1.82
GAAUCG | 1.4
AAGUAG | 1.1
